# PROTOCOL DESCRIPTION: Plasma pharmacokinetics in rats after oral administration of Yizhi tablets, EPT or EPG (HPLC-ESI/MS)
# Type: in vivo, Sprague-Dawley rats
# CONDITION: male, Sprague-Dawley, rat, in vivo, po, 9 g/kg, oral Yizhi tablets 9 g/kg, n = 6

COMPOUND SMILES	AUC(0-t)
CC[C@H]1CN2CC[C@]3(C(=O)Nc4ccccc43)[C@@H]2C[C@@H]1/C(=C\OC)C(=O)OC	29.7 µg·h/mL
OCc1ccc(O[C@@H]2O[C@H](CO)[C@@H](O)[C@H](O)[C@H]2O)cc1	230 µg·h/mL

---

# PROTOCOL DESCRIPTION: Plasma pharmacokinetics in rats after oral administration of Yizhi tablets, EPT or EPG (HPLC-ESI/MS)
# Assay type: in vivo, Sprague-Dawley rats
# CONDITION: male, Sprague-Dawley; rat plasma, oral EPT 5.4 g/kg, n = 6
# Experimental: Male Sprague-Dawley rats (weight: 220 ± 30 g) were purchased from the animal laboratory centre at Tsinghua University (Beijing, China). […] Yizhi tablets, EPT, and EPG were separately suspended in 0.5% carboxymethylcellulose solution and administered orally to six conscious rats at doses of 9 g/kg for Yizhi tablets, 5.4 g/kg for EPT, and 3.6 g/kg for EPG, respectively. […] The concentrations of GAS, HBA, and RIN in plasma were determined as described above. […]

COMPOUND	SCALE UNIT	AUC(0-t)
OCc1ccc(O)cc1 [HBA, p-hydroxybenzyl alcohol]	ng·h/mL	27600

---

# PROTOCOL DESCRIPTION: Plasma pharmacokinetics in rats after oral administration of Yizhi tablets, EPT or EPG (HPLC-ESI/MS)
# Type: in vivo, Sprague-Dawley rats
# CONDITION: male, Sprague-Dawley; rat plasma, oral Yizhi tablets 9 g/kg, n = 6; read-out: MRT(0–t) (converted)
# Protocol: Male Sprague-Dawley rats (weight: 220 ± 30 g) were purchased from the animal laboratory centre at Tsinghua University (Beijing, China). […] Yizhi tablets, EPT, and EPG were separately suspended in 0.5% carboxymethylcellulose solution and administered orally to six conscious rats at doses of 9 g/kg for Yizhi tablets, 5.4 g/kg for EPT, and 3.6 g/kg for EPG, respectively. […] The concentrations of GAS, HBA, and RIN in plasma were determined as described above. […]
ATTRIBUTE MEASURED: MRT last (h)

COMPOUND	ASSAY VALUE
OCc1ccc(O)cc1 [HBA, p-hydroxybenzyl alcohol]	4.44

---

# PROTOCOL DESCRIPTION: Plasma pharmacokinetics in rats after oral administration of Yizhi tablets, EPT or EPG (HPLC-ESI/MS)
# Type: in vivo, Sprague-Dawley rats
# CONDITION: male, Sprague-Dawley, in vivo; rat plasma, oral Yizhi tablets 9 g/kg, n = 6

COMPOUND SMILES	Cmax
CC[C@H]1CN2CC[C@]3(C(=O)Nc4ccccc43)[C@@H]2C[C@@H]1/C(=C\OC)C(=O)OC	6.5 µg/mL
OCc1ccc(O[C@@H]2O[C@H](CO)[C@@H](O)[C@H](O)[C@H]2O)cc1	141 µg/mL

---

# PROTOCOL DESCRIPTION: Plasma pharmacokinetics in rats after oral administration of Yizhi tablets, EPT or EPG (HPLC-ESI/MS)
# Assay type: in vivo, Sprague-Dawley rats
# CONDITION: male, Sprague-Dawley, in vivo; rat plasma, oral Yizhi tablets 9 g/kg, n = 6

COMPOUND SMILES	SCALE UNIT	CL/F
CC[C@H]1CN2CC[C@]3(C(=O)Nc4ccccc43)[C@@H]2C[C@@H]1/C(=C\OC)C(=O)OC	mL/min/kg	2.18
OCc1ccc(O[C@@H]2O[C@H](CO)[C@@H](O)[C@H](O)[C@H]2O)cc1	mL/min/kg	3.5

Where do the numbers come from? From paper PMC4281461.
